- Organism: Cavia porcellus
- PROTOCOL_SUMMARY: Displacement of [3H]-PN200-110 from L-type calcium channel in Hartley guinea pig atrial membrane at 100 uM after 90 mins relative to control
- Type: cell membranes
- MEASUREMENT_CONDITIONS: Cardiac atrium
QUANTITY_MEASURED: %max (%)
Value expressed in %; do not type the unit.

Example entries and their recorded answers appear below.
- COMPOUND_STRING: "COC(=O)C1=C(C)NC(C)=C(C(=O)OC)C1c1c(-c2ccsc2)nc2sccn12"
  VALUE_UNIT: "%"
  RECORDED_NUMBER: 60
- COMPOUND_STRING: "COC(=O)C1=C(C)NC(C)=C(C(=O)OC)C1c1c(Cl)nc2sc(C)cn12"
  VALUE_UNIT: "%"
  RECORDED_NUMBER: 95
- COMPOUND_STRING: "COC(=O)C1=C(C)NC(C)=C(C(=O)OC)C1c1c(-c2cccc(OC)c2)nc2sccn12"
  VALUE_UNIT: "%"
  RECORDED_NUMBER: 92

The record that follows has no %max shown yet.
For this molecule ( COC(=O)C1=C(C)NC(C)=C(C(=O)OC)C1c1c(-c2cc(OC)cc(OC)c2)nc2sccn12 ), measured %max is 54
